- Test system: SNB-75 CNS
- assay.summary: NCI tumour cell line growth inhibition, 48 h
For each record, write down the corresponding TGI.

In: Please look up its TGI: NCCNC(=O)CN(CC(=O)O)C1CCCCC1N(CC(=O)O)CC(=O)O (centres undefined)
Out: 94.9 µM

In: Would you kindly repeat that for "C=C(CN1c2ccccc2Sc2ccccc21)c1ccc(C(=O)Nc2ccccc2N)cc1" ?
Out: > 100 µM

In: Would you kindly repeat that for "CCN(CC)c1ccc2nc3ccc(N=Nc4ccc(O)cc4)cc3[n+](-c3ccccc3)c2c1" ?
Out: 21.9 µM

In: Would you kindly repeat that for CC(=O)OC1C(O[C@H]2CC[C@]34O[C@]35CC[C@]3(C)C(C6(C)CC[C@@H](C(C)(C)O)O6)[C@@H](O)CC3(C)[C@@H]5CC(OC3OC(CO)C(O)C(O)C3O)C4C2(C)C)OCC(O)C1O (some centres undefined) ?
Out: > 100 µM

Give me TGI for each of these compounds, listed below.
1. Cc1cc(N(CCC#N)CCC#N)ccc1/C(N=Nc1ccc([N+](=O)[O-])cc1)=N\NC(=O)c1ccccc1
2. Nc1nc2c(ccc3ccccc32)s1
3. O=C(/C(=N/Nc1ccccc1)c1ccc([N+](=O)[O-])cc1)c1ccc([N+](=O)[O-])cc1
4. CCC(=O)C(C(=O)CC)c1c(OC(=O)c2ccccc2)ccc(O)c1C(=O)OC
5. Cc1ccc(SCC(OCn2cnc3c(Cl)nc(N)nc32)[C@H](C)F)cc1 (some centres undefined)

Out:
> 100 µM
> 100 µM
> 100 µM
> 100 µM
> 100 µM

Every entry's value here was drawn from PubChem BioAssay (NCI).
